- MEASURED_ON: human PPARγ LBD (aa 193–475) (Homo sapiens)
- Construct: human PPARγ (aa 193–475); [His]6 (N); made in house; host or cells: E. coli BL21 Codon Plus (DE3)-RIL (plasmid from Krister Bamberg, Astra-Zeneca)
- Sequence (P37231 193-475 isoform P37231-2): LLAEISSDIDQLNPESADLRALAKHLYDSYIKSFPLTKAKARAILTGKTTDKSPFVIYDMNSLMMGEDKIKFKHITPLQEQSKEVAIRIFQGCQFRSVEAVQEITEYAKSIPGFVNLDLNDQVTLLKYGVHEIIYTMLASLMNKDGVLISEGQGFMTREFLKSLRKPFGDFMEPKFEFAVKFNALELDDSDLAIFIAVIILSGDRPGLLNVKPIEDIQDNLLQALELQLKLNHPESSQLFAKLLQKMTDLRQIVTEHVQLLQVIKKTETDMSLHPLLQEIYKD
- ASSAY_EXPLANATION: cis-parinaric acid fluorescence displacement assay with PPARγ LBD
- Assay type: binding
- COND: cis-parinaric acid (2 μM) displacement, LBD 1 μM; nd = no binding detected; read-out: Ki, PPARγLBD
pKi: −log10 of the molar value.
Catalogue of pKi readings, one per entry.
MEASURE: pKi

[[record]]
compound = "CCCc1c(OCCCOc2ccc(OCC(=O)O)cc2)ccc(C(C)=O)c1O [L-165,041]"
measure = "pKi"
value_observed = 4.92

[[record]]
compound = "Cc1nc(-c2ccc(C(F)(F)F)cc2)sc1C(=O)NCc1ccc(OC(C)(C)C(=O)O)cc1 [GW590735]"
measure = "pKi"
value_observed = 5.36


---

- MEASURED_ON: human L-FABP (Homo sapiens)
- ASSAY_EXPLANATION: ANS fluorescence displacement assay with L-FABP
pKi: −log10 of the molar value.
Catalogue of pKi readings, one per entry.
MEASURE: pKi

[[record]]
molecule = "Cc1nc(-c2ccc(C(F)(F)F)cc2)sc1C(=O)NCc1ccc(OC(C)(C)C(=O)O)cc1 [GW590735]"
measure = "pKi"
value_observed = 4.70

[[record]]
molecule = "CN(CCOc1ccc(C[C@H](Nc2ccccc2C(=O)c2ccccc2)C(=O)O)cc1)c1ccccn1 [GW1929]"
measure = "pKi"
value_observed = 5.80

[[record]]
molecule = "Cc1c(C)c2c(c(C)c1O)CCC(C)(COc1ccc(CC3SC(=O)NC3=O)cc1)O2 (stereo not shown) [Troglitazone]"
measure = "pKi"
value_observed = 5.77

[[record]]
molecule = "CN(CCOc1ccc(CC2SC(=O)NC2=O)cc1)c1ccccn1 (stereo not shown) [Rosiglitazone]"
measure = "pKi"
value_observed = 5.55


---

- MEASURED_ON: human PPARδ LBD (aa 171–441) (Homo sapiens)
- Sequence (Q03181 171-441): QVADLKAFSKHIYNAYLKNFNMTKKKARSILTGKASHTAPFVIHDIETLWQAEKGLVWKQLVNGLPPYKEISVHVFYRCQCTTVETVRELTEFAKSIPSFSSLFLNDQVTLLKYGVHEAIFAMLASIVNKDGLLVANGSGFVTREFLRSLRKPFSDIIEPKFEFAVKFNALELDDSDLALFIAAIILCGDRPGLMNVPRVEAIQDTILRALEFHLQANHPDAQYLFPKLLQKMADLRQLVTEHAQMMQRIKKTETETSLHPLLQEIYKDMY
Catalogue of Ki readings, one per entry.
MEASURE: Ki (µM)

[[record]]
compound = "CC(C)(Oc1ccc(C(=O)c2ccc(Cl)cc2)cc1)C(=O)O"
measure = "Ki"
value_observed = 49

[[record]]
compound = "CCCCCCCC/C=C\\CCCCCCCC(=O)O [Oleate]"
measure = "Ki"
value_observed = 1.1

[[record]]
compound = "CCCc1c(OCCCOc2ccc(OCC(=O)O)cc2)ccc(C(C)=O)c1O"
measure = "Ki"
value_observed = 0.8

[[record]]
compound = "Cc1nc(-c2ccc(C(F)(F)F)cc2)sc1C(=O)NCc1ccc(OC(C)(C)C(=O)O)cc1"
measure = "Ki"
value_observed = 23


---

- MEASURED_ON: human PPARγ LBD (aa 193–475) (Homo sapiens)
- Construct: human PPARγ (aa 193–475); [His]6 (N); made in house; host or cells: E. coli BL21 Codon Plus (DE3)-RIL (plasmid from Krister Bamberg, Astra-Zeneca)
- ASSAY_EXPLANATION: cis-parinaric acid fluorescence displacement assay with PPARγ LBD
- Assay type: binding
MEASURE: Ki (nM)

[[record]]
compound = "CCCCCCCC/C=C\\CCCCCCCC(=O)O [Oleate]"
unit_label = "nM"
value_observed = 600


---

- MEASURED_ON: human PPARα LBD (aa 196–468) (Homo sapiens, UniProt Q07869)
- Sequence (Q07869 196-468): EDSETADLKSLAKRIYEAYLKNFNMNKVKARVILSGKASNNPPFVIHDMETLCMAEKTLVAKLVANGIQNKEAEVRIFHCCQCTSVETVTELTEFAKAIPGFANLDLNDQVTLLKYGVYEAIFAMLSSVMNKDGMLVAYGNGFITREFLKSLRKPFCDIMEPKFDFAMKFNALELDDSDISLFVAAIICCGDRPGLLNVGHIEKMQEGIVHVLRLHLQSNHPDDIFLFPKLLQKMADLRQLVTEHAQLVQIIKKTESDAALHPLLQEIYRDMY
pKi: −log10 of the molar value.
MEASURE: pKi

[[record]]
compound = "CCCCCCCC/C=C\\CCCCCCCC(=O)O [Oleate]"
measured_on = "human PPARα LBD (aa 196–468) (Homo sapiens, UniProt Q07869)"
value_observed = 6.68

[[record]]
compound = "CC(C)(Oc1ccc(C(=O)c2ccc(Cl)cc2)cc1)C(=O)O [Fenofibric acid]"
measured_on = "human PPARα LBD (aa 196–468) (Homo sapiens, UniProt Q07869)"
value_observed = 5.00

[[record]]
compound = "CCCc1c(OCCCOc2ccc(OCC(=O)O)cc2)ccc(C(C)=O)c1O [L-165,041]"
measured_on = "human PPARα LBD (aa 196–468) (Homo sapiens, UniProt Q07869)"
value_observed = 5.38


---

- MEASURED_ON: human L-FABP (Homo sapiens, UniProt P07148)
- Sequence (P07148 whole entry): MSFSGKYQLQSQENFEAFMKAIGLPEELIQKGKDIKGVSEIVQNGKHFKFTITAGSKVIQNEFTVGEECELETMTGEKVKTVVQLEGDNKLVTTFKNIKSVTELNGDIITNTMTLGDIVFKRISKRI
- ASSAY_EXPLANATION: cis-parinaric acid fluorescence displacement assay with L-FABP
pKi: −log10 of the molar value.
Catalogue of pKi readings, one per entry.
MEASURE: pKi

[[record]]
entry_smiles = "CC(C)(Sc1ccc(CCN(CCCCC2CCCCC2)C(=O)NC2CCCCC2)cc1)C(=O)O"
measured_on = "human L-FABP (Homo sapiens, UniProt P07148)"
value_observed = 6.26

[[record]]
entry_smiles = "CCCc1c(OCCCOc2ccc(OCC(=O)O)cc2)ccc(C(C)=O)c1O"
measured_on = "human L-FABP (Homo sapiens, UniProt P07148)"
value_observed = 5.64


---

Catalogue of Ki readings, one per entry.
- MEASURED_ON: human L-FABP (Homo sapiens)
- ASSAY_EXPLANATION: ANS fluorescence displacement assay with L-FABP
MEASURE: Ki (µM)

[[record]]
entry_smiles = "CC(C)(Oc1ccc(C(=O)c2ccc(Cl)cc2)cc1)C(=O)O"
value_observed = 1

[[record]]
entry_smiles = "CC(C)(Sc1ccc(CCN(CCCCC2CCCCC2)C(=O)NC2CCCCC2)cc1)C(=O)O"
value_observed = 0.32

[[record]]
entry_smiles = "CCCc1c(OCCCOc2ccc(OCC(=O)O)cc2)ccc(C(C)=O)c1O"
value_observed = 1.4

